Provenance of the data: patent US20230099344A1

Here the recorded DC50 is given for each entry.
Molecular target: IRAK-4 (Homo sapiens)
Sequence (Q9NWZ3 1-460): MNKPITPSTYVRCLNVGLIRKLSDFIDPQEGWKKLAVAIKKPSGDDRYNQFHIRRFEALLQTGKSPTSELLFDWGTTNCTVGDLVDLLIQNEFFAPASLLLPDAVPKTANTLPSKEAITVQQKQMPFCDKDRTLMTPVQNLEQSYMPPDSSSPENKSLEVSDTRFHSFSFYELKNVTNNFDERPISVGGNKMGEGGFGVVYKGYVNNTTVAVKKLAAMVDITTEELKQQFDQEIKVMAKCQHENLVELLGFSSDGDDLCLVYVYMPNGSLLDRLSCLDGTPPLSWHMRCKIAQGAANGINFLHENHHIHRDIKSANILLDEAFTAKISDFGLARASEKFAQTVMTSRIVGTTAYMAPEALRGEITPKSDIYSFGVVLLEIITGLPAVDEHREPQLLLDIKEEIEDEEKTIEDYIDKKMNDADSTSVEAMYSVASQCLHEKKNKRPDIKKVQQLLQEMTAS
Experiment: IRAK-4 ELISA, PBMC degradation
Assay type: cell-based
Set-up: endogenous in cells; host or cells: PBMC
Conditions: treated overnight
experimentalReadout: DC50

>>> value("O=C1CCC(N2C(=O)c3ccc(N4CC[C@@H](N5CCC(n6cc7cc(NC(=O)c8cnn9cccnc89)c(OCC8CC8)cc7n6)CC5)C4)cc3C2=O)C(=O)N1 (some centres unmarked)")
"1 to 5 nM"
>>> value("O=C1CCC(N2C(=O)c3ccc(N4CCN(CCN5CCC([C@H](F)CN6Cc7cc(NC(=O)c8cnn9cccnc89)c(N8CCOCC8)cc7C6=O)CC5)CC4)cc3C2=O)C(=O)N1 (some centres unmarked)")
"< 1 nM"
>>> value("CC(C)Oc1cc2c(cc1NC(=O)c1cnn3cccnc13)CN(C1CCN(CC3(F)CN(c4cccc5c4n(C)c(=O)n5C4CCC(=O)NC4=O)C3)CC1)C2=O (centres unmarked)")
"< 1 nM"
>>> value("O=C1CCC(N2C(=O)c3ccc(N4CCC(CN5CCC(n6cc7cc(NC(=O)c8cnn9cccnc89)c(C8CC8)cc7n6)CC5)CC4)cc3C2=O)C(=O)N1 (centres unmarked)")
"1 to 5 nM"
>>> value("O=C1CCC(NC(=O)c2ccc(N3CCC(CN4CCC(N5Cc6cc(NC(=O)c7cnn8cccnc78)c(N7CCC(N8CCC8)CC7)cc6C5=O)CC4)CC3)cc2F)C(=O)N1 (centres unmarked)")
"1 to 5 nM"
>>> value("COc1cc(N2CC(CN3CCC(n4cc5cc(NC(=O)c6cnn7cccnc67)c(OCC6CC6)cc5n4)CC3)C2)cc2c1C(=O)N(C1CCC(=O)NC1=O)C2 (centres unmarked)")
"< 1 nM"
>>> value("CC(C)Oc1nc2c(cc1NC(=O)c1cnn3cccnc13)CN(C1CCN(CCc3ccc4c(c3)C(=O)N(C3CCC(=O)NC3=O)C4=O)CC1)C2=O (centres unmarked)")
"5 to 10 nM"
>>> value("O=C1CCC(N2C(=O)c3ccc(N4CCN(CCN5CCC(n6cc7cc(NC(=O)c8cnn9cccnc89)c(OCC8CC8)cc7n6)CC5)CC4)cc3C2=O)C(=O)N1 (centres unmarked)")
"< 1 nM"
>>> value("O=C1CCC(N2C(=O)c3ccc(N4CCC(CN5CCC(N6Cc7cc(NC(=O)c8cnn9cccnc89)c(N8CCOCC8)cc7C6=O)CC5)CC4)cc3C2=O)C(=O)N1 (centres unmarked) [Example 31]")
"1 to 5 nM"
>>> value("CC(C)Oc1cc2nn(C[C@@H](F)C3CCN(CC4CN(c5ccc6c(c5)C(=O)N(C5CCC(=O)NC5=O)C6=O)C4)CC3)cc2cc1NC(=O)c1cnn2cccnc12 (some centres unmarked)")
"1 to 5 nM"
>>> value("CCN(C1CN(c2cccc3c2C(=O)N(C2CCC(=O)NC2=O)C3=O)C1)[C@H]1CC[C@H](n2cc3cc(NC(=O)c4cnn5cccnc45)c(OC(C)C)cc3n2)CC1 (some centres unmarked)")
"≥ 10 nM"
